Biological target: STAT4 (Homo sapiens, UniProt Q14765)
Sequence (Q14765 whole entry, species assumed): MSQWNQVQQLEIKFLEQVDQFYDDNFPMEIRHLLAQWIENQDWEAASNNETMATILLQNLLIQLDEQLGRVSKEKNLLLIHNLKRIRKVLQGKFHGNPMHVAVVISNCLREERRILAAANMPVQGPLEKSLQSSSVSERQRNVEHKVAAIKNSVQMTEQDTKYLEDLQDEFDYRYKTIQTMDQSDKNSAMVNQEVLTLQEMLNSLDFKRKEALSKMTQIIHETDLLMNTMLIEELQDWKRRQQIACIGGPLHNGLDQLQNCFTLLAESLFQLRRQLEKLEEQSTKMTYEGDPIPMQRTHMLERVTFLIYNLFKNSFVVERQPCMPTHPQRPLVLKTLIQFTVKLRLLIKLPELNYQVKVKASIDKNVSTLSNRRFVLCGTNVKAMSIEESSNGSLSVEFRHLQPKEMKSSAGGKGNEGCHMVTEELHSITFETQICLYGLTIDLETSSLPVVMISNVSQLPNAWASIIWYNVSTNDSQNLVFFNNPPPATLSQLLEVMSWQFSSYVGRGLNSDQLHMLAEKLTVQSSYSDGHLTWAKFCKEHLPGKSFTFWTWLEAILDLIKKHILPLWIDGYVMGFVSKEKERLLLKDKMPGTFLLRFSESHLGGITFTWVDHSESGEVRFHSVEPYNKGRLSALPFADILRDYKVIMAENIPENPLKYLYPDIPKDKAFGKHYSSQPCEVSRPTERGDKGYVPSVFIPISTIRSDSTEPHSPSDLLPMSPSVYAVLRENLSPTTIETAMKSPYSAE
Metric: pKi
Hey, just a heads up that pKi is the negative log base 10 of the concentration in molar.

IN: Look at this molecule and give its reported pKi. O=C(CNc1ccc(C(=O)Nc2ccc(Oc3ccccc3)cc2)cc1)NCc1cc(OP(=O)(O)O)cc(OP(=O)(O)O)c1
OUT: 5.28
